The measurements presented in this section are drawn from patent US20190218553.

- SYSTEM_NAME: von Willebrand factor (VWF) (Homo sapiens, UniProt P04275 P04275:764-2813)
- TEST_METHOD_NOTES: filter; Bmax 60%; 2 mM CaCl2, 37 C
- PARTICULARS: tags: factor VIII free, Haematologic Technologies Inc; label: 5'-32P
QUANTITY_NAME: pKd
// pKd is dimensionless: -log10 of concentration (M)

[
  {
    "BINDER": "ACGAACUGCCCUCGUAAGACGCACAGACGUUUUUU (ssRNA, mAmCmGmAmAmCmUmGfCfCfCmUmCmGmUmAmAmGmAfCfGfCmAmCmAmGmAmCmGmUmUmUmUmUmUidT) [DTRI-034]",
    "pKd": 8.55
  }
]

Consider now this further binder.
So what does the record say about pKd for ACGAACUGCCCUCGAUUAUUCGACGCACAGACGU (ssRNA, 2'-F C and U; 2'-OH A and G; 3' idT) [T49] ?
7.98
